# Target: Bile acid receptor (Homo sapiens, UniProt Q96RI1)
# Sequence (Q96RI1 whole entry, the tested form may be a part): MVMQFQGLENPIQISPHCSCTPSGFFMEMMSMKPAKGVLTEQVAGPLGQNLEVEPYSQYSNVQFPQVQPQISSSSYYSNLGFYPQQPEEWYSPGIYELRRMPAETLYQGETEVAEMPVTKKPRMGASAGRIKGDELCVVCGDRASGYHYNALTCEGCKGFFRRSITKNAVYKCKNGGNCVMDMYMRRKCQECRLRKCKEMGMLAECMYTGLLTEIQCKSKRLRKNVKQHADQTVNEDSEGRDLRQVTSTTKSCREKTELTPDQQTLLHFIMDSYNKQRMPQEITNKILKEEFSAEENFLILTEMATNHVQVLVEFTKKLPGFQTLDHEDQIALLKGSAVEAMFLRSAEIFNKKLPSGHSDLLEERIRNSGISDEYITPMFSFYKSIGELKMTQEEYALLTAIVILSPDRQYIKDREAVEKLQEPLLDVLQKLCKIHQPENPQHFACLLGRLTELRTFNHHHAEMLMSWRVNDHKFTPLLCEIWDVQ
# Method: Agonist activity at human recombinant FXR expressed in HEK293 cells coexpressing CMX-GAL4N by luciferase reporter gene assay
Quantity measured: EC50 (nM)

Compound: CC(C)c1onc(-c2c(Cl)cccc2Cl)c1COc1ccc(N(C(=O)c2cccc(C(=O)O)c2)c2cccc3ccccc23)c(Cl)c1
Target: Bile acid receptor (Homo sapiens, UniProt Q96RI1)
EC50, nM: 410
--
Compound: CC(C)c1onc(-c2c(Cl)cccc2Cl)c1COc1ccc(C(=O)N(c2cccc(C(=O)O)c2)c2cccc3ccccc23)c(Cl)c1
Target: Bile acid receptor (Homo sapiens, UniProt Q96RI1)
EC50, nM: 3000
--
Compound: C[C@H](CCC(=O)O)[C@H]1CC[C@H]2[C@@H]3CC[C@@H]4C[C@H](O)CC[C@]4(C)[C@H]3C[C@H](O)[C@]12C [DEOXYCHOLIC ACID]
Target: Bile acid receptor (Homo sapiens, UniProt Q96RI1)
EC50, nM: 50000

A = CCCCN(C(=O)c1ccc(OCc2c(-c3c(Cl)cccc3Cl)noc2C(C)C)cc1Cl)c1cccc(C(=O)O)c1
B = CC(C)c1onc(-c2c(Cl)cccc2Cl)c1COc1ccc(C(=O)N(Cc2ccccc2)c2ccc(C(=O)O)cc2)c(Cl)c1
// returns A or B , whichever has the lower EC50 API: response body contains the label of the selected item. A
(A: 1100 nM, B: 2600 nM)
